Numbers sourced from ChEMBL document CHEMBL3988442.

Quick list: Percent Effect per entry.
tested on: Mycobacterium tuberculosis; test: Cornell M. t heat shock assay; assay type: functional, organism-based; parameters: dose or concentration left out as unconfirmed; also: in the data most compounds retested in dose-response had high values
Hit rate of the full screen: of about 69,000 compounds, about 950 (1.4%) showed an effect of 50% or more. The entries come from a sample that favours strong results as a whole.
MEASURE: Percent Effect (%)

{"columns": ["MOLECULE", "OBSERVED_RESULT"],
 "data": [
  ["Cc1cccc(C(=O)N2C[C@@H]3COC[C@@H](CC(=O)N4CCCC4)[C@@H]3C2)n1.O=C(O)C(F)(F)F", -12.77],
  ["O=C(N1CCCCC1)N1CCN(CC(O)c2ccccc2)CC1 (stereo not drawn)", -21.19],
  ["CCN(CC)c1nc(Nc2cccc(C(C)O)c2)nc2ccccc12 (stereo not drawn)", 99.47],
  ["CCc1cc(N2CCC(NC(=O)CCC3CCCO3)CC2)ncn1 (stereo not drawn)", -18.51],
  ["Cn1ncc(Cl)c1C(=O)N1CCC(c2nnsc2S(C)(=O)=O)CC1", -21.53],
  ["Cc1cc(C)nc(N2CCCC(C(=O)Nc3n[nH]c(C(C)C)n3)C2)n1 (stereo not drawn)", 13.11],
  ["CC(C)Nc1cc(N2CCC(n3cc(C4CC4)nn3)CC2)ncn1", -24.54],
  ["COCCN(C)Cc1cc(Cl)ccc1OCC(O)CN1CCCCCC1 (stereo not drawn)", 4.611],
  ["Cc1nc[nH]c1CN1C[C@@H]2CC[C@H](C1)N(C(=O)CCn1cncn1)C2", 2.899],
  ["CO[C@H]1C[C@@H]2CN(C(=O)c3n[nH]c4c3CCCC4)C[C@@H]2C1", -12.29],
  ["CN(C)c1nc2c(c(N(C)Cc3n[nH]c4c3CCCCC4)n1)CCNC2", 76.86],
  ["CN(Cc1ccnc2ccccc12)C1CCS(=O)(=O)C1.O=C(O)CC(O)(CC(=O)O)C(=O)O (stereo not drawn)", 6.818],
  ["OCCNc1cc(N2CCC(n3cc(C4CCCC4)nn3)CC2)ncn1", 8.872],
  ["O=C(CN1CCCCCC1)NCc1cccnc1Oc1ccccc1", 2.86],
  ["CC(C)[C@H](N)CC(=O)Nc1nc(-c2cnc(N3CCOCC3)nc2)cs1.Cl", -24.08],
  ["CC(O)c1cccc(Nc2nc(NCCO)c3ccccc3n2)c1 (stereo not drawn)", 10.04],
  ["O=C(O)C(=O)O.c1coc(CN2CCC(c3ccc4c(c3)OCO4)CC2)c1", 5.355],
  ["CC(=O)Nc1c(C)noc1/C=C\\c1ccc(C)c(S(=O)(=O)NC2CC2)c1", 14.26],
  ["O=C(C1CCC1)N1C[C@@H]2CC[C@H](C1)N(S(=O)(=O)c1ccccc1)C2", -12.74],
  ["CC1(C)Cc2cc(-c3cncn3CCNC3CCS(=O)(=O)C3)ccc2O1.Cl (stereo not drawn)", 8.949],
  ["Nc1cc(N2CCCC(COc3ccc(F)cc3)C2)nc(N)n1 (stereo not drawn)", 0.7864],
  ["Cc1ncccc1NC(=O)[C@H]1C[C@@H]2CCN(Cc3nccs3)C[C@@H]2O1.O=C(O)C(F)(F)F.O=C(O)C(F)(F)F", -3.608],
  ["O=C(NC[C@]12COC[C@H]1CN(C1CCOCC1)C2)c1ccco1.O=C(O)C(F)(F)F", -7.738],
  ["COCC1Cn2nnc(-c3cnn(C)c3)c2CN1Cc1ccoc1.O=C(O)C(F)(F)F (stereo not drawn)", 5.008],
  ["CN(C)C[C@]12COC[C@H]1CN(C(=O)CCc1ccccc1)C2.O=C(O)C(F)(F)F", -31.23],
  ["CN(C)S(=O)(=O)NCc1cccnc1Oc1ccccc1", -4.23],
  ["Cc1nnc(CSc2n[nH]c(-c3ccccn3)n2)o1", 13.15],
  ["CCNC(=O)c1ccnc(N2CCCC(COc3ccccc3C)C2)c1 (stereo not drawn)", -1.28],
  ["Cc1ccccc1OCC1CCCN(c2cc(N)nc(N)n2)C1 (stereo not drawn)", 94.51],
  ["O=C(c1ccccn1)N1CCCN(Cc2nnc(C3CC3)o2)CC1", 27.04],
  ["CCNc1ncc(C(=O)N2CCOC(CCCc3ccccc3)C2)cn1 (stereo not drawn)", 13.88],
  ["CN(CCCO)Cc1cc(Cl)ccc1OCC(O)CN1CCCCCC1 (stereo not drawn)", 44.14],
  ["Cc1nc(N)cc(N2CCCC(COc3cccc(F)c3)C2)n1 (stereo not drawn)", 95.51],
  ["COCCN(C)C1COC2(CCN(Cc3ccccn3)CC2)C1.O=C(O)C(F)(F)F.O=C(O)C(F)(F)F (stereo not drawn)", -27.77],
  ["COCCN1CCN(CCS(C)(=O)=O)CC1C (stereo not drawn)", -13.47],
  ["CN(CCO)Cc1cc(Cl)ccc1OCC(O)CN1CCCCCC1 (stereo not drawn)", 54.32],
  ["Cc1nc(CN(C)C)cc(N2CCCC(COc3ccc(F)cc3)C2)n1 (stereo not drawn)", 82.2],
  ["CN(C)Cc1ccc(C(=O)N2CCCC(COc3ccc(F)cc3)C2)o1 (stereo not drawn)", 1.225],
  ["CCc1cc(N2CCC(n3cc(C(=O)NC4CC4)nn3)CC2)ncn1", 51.27],
  ["c1ccc(Oc2ncccc2CNCc2ccccn2)cc1", 69.15],
  ["CCNc1ncc(C(=O)N2CCOC(CCCC(C)C)C2)cn1 (stereo not drawn)", 101.8],
  ["CC(C)C(C)NC(=O)c1ncn2c1CN(C)S(=O)(=O)c1ccccc1-2.O=C(O)C(F)(F)F (stereo not drawn)", -5.107],
  ["Cc1cc(-c2cnn(CCNC(=O)c3cnn(C)c3)c2C2CC2)on1", -6.591]
]}
